Kd by entry:
- system.name: T1, rhesus serum albumin (rhesus, UniProt Q28522 17-600)
- T1 construct: also called RhSA
- protocol.details: SPR, single cycle kinetics, pH 5.5
Give your result in nM as a bare value.

binder: R28-H3 (VHH) VHH: QVQLVESGGGLVQPGGSLRLSCAASGRTFIAYAMGWFRQAPGKEREFVAAITNFAGGTTYYADSVKGRFTISRDNSKNTLYLQMNSLRAEDTAVYYCAADRSAQTMRQVRPVLPYWGQGTLVTVSS
readout.type: Kd
value.measured: 1270

Pending binder:
// lookup Kd for M79 sdAb (VHH, also called M79 VHH) VHH: QVKLEESGGGLVQAGGSLKLSCAASGSTFSSSSVGWYRQAPGQQRELVAAITSGGSTNTADSVKGRFTMSRDNAKNTVYLQMRDLKPEDTAVYYCNVAGRNWVPISRYSPGPYWGQGTQVTVSS 2

Sourced from patent US20210253679A1
